Biological target: Sodium channel protein type 9 subunit alpha (Homo sapiens, UniProt Q15858)
Sequence (Q15858 whole entry): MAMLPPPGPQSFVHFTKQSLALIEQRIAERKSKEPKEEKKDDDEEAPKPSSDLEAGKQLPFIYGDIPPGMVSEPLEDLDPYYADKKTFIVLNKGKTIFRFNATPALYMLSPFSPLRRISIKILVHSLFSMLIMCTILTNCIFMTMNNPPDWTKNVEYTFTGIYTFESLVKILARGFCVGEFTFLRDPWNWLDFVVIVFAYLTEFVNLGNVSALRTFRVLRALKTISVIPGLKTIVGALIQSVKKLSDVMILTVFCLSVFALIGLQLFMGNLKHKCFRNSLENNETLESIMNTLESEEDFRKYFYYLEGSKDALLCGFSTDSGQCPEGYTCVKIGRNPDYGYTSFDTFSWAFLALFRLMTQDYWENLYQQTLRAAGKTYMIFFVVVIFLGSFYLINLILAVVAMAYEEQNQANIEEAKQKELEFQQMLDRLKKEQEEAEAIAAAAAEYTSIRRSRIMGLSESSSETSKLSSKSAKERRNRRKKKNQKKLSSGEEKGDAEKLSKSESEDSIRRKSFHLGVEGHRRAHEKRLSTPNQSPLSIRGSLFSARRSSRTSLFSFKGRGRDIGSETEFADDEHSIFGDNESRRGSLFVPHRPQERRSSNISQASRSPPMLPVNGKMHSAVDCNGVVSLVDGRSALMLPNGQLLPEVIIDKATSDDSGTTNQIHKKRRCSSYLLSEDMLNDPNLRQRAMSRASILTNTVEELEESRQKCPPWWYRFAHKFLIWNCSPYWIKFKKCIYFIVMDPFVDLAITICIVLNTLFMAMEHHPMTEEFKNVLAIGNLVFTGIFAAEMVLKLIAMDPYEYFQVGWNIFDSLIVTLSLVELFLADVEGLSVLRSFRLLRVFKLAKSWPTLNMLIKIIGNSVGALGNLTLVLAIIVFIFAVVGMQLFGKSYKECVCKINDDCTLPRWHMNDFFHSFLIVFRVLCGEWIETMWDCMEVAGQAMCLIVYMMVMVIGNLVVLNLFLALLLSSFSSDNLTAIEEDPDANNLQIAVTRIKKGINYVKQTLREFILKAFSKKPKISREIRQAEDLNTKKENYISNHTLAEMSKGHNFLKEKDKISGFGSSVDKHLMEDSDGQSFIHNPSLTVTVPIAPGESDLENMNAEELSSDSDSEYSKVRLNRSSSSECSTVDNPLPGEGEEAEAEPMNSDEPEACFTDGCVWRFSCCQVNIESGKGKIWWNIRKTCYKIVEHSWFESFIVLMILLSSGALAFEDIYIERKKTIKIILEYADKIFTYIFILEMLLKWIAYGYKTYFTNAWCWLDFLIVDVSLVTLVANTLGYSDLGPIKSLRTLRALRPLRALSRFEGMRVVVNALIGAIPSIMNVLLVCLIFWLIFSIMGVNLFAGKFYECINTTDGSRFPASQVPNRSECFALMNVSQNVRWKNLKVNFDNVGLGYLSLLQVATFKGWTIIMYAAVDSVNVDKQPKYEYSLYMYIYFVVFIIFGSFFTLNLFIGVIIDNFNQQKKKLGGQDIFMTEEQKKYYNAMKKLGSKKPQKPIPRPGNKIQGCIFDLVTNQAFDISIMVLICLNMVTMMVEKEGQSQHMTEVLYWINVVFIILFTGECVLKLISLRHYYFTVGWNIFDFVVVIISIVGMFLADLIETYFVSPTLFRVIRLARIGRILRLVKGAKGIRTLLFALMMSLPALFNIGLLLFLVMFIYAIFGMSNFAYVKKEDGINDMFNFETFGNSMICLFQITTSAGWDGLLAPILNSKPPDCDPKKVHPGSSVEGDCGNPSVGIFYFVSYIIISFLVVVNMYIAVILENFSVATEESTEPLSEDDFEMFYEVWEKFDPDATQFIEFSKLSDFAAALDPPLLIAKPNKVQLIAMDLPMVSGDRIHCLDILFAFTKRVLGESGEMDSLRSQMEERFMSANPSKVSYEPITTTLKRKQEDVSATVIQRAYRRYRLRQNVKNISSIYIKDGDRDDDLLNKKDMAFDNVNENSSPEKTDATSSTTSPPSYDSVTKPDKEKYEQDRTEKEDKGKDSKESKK
Assay: Radioligand Binding Assay (EP) (In vitro Assay)
Details: pH 7.4; 25 °C
observed.property: IC50 (nM)
Express the result in nM but write the number alone.

Given O=C(NS(=O)(=O)C1CC1)c1cc(C2CC2)c(OCC2CCN(S(=O)(=O)c3ccc4ccccc4c3)CC2)cc1F [US9546164, 389] , respond with its IC50.
8.8

// fetch IC50 given entry CC(C)(C)OC(=O)N1CCC(COc2cc(F)c(C(=O)NS(C)(=O)=O)cc2Cl)CC1 [US9546164, 78]
490

Dear colleague, please send me the reported IC50 for CC1(COc2cc(F)c(C(=O)NS(C)(=O)=O)cc2C2CC2)CCN(Cc2cc(C(F)(F)F)ccc2C(F)(F)F)CC1 [US9546164, 107] when you can.
2.1

Identify measured IC50 associated with CC(c1ccc(OC(F)(F)F)cc1)N1CC(COc2cc(F)c(C(=O)NS(C)(=O)=O)cc2C2CC2)C1 (stereo not drawn) [US9546164, 157]
35.1

Consider the compound O=C(NS(=O)(=O)N1CCC1)c1cc(C2CC2)c(OCC2CC3CCC(C2)N3C(c2ccccc2)c2ccccc2)cc1F (stereo not drawn) [US9546164, 49] . State its measured IC50.
4.3

Fill in reported IC50 for this entry: CS(=O)(=O)NC(=O)c1cc(C2CC2)c(OCC2(F)CCN(Cc3cc(Cl)ccc3C(F)(F)F)CC2)cc1F [US9546164, 348]
4.5

Report measured IC50; entry is CS(=O)(=O)NC(=O)c1cc(C2CC2)c(OCC2CCN(S(=O)(=O)c3cc(F)c(F)c(F)c3)CC2)cc1F [US9546164, 380]
40.9

Please look at this compound and report its IC50: CS(=O)(=O)NC(=O)c1cc(C2CC2)c(OCC2(F)CN(C(c3ccccc3)c3ccccc3)C2)cc1F [US9546164, 67]
7.9
